assay: Plasma protein binding in human assessed as unbound fraction incubated for 24 hrs by equilibrium dialysis based Rapidfire-QToF mass spectrometric analysis; format: ADME, cell-free
# if value of fraction unbound at 24 h reaches 0.3, tag TRUE; if it stays below, tag FALSE

C[C@@H](OC(=O)Nc1c(-c2ccc(NC(=O)C34CC(C#N)(C3)C4)cn2)nnn1C)c1cc(F)cnc1F : TRUE

Ask: Tell me whether fraction unbound at 24 h is at least 0.3 here: C[C@@H](OC(=O)Nc1c(-c2ccc(NC(=O)C3CC(F)(F)C3)cn2)nnn1C)c1cc(F)cnc1F
Reply: FALSE

Ask: Tell me whether fraction unbound at 24 h is at least 0.3 here: C[C@@H](OC(=O)Nc1c(-c2ccc(NS(C)(=O)=O)cn2)nnn1C)c1cccnc1Cl
Reply: FALSE

Ask: Tell me whether fraction unbound at 24 h is at least 0.3 here: C[C@@H](OC(=O)Nc1c(-c2ccc(NS(C)(=O)=O)cn2)nnn1C)c1cc(F)ccc1F
Reply: FALSE

---

assay: Half-life in male Sprague-Dawley rat at 1 mg/kg, iv measured after 24 hrs by LC/MS/MS analysis; format: ADME, organism-based; conditions: in vivo
Readout: half-life (h)
Answer with a number only, understood to be in h.

Ask: Please report half-life for the following molecule: C[C@@H](OC(=O)Nc1c(-c2ccc(NS(C)(=O)=O)cn2)nnn1C)c1cc(F)cnc1F
Reply: 3

---

test: Plasma protein binding in Beagle dog assessed as unbound fraction at 2 uM incubated for 24 hrs by LC-MS analysis; assay type: ADME, cell-free, Canis lupus familiaris
Readout: fraction unbound at 24 h, 2 µM
Keep the answer to the number alone.

Ask: Please report fraction unbound at 24 h, 2 µM for the following compound: C[C@@H](OC(=O)Nc1c(-c2ccc(NC(=O)c3cnc(C(F)(F)F)nc3)cn2)nnn1C)c1cc(F)cnc1F
Reply: 0.095

---

Measured Papp A→B at 4 h of individual entries
experiment: Apparent permeability across apical to basolateral side in cMDR1 knockout MDCK-II cells incubated upto 240 mins by RF-QToF analysis; format: ADME, cell-based, Canis lupus familiaris; settings: dog
Answer with a number only, understood to be in ×10⁻⁶ cm/s.

See these solved cases before continuing.
C[C@@H](OC(=O)Nc1c(-c2ccc(NS(C)(=O)=O)cn2)nnn1C)c1ccccc1Cl : 19
C[C@@H](OC(=O)Nc1c(-c2ccc(NS(C)(=O)=O)cn2)nnn1C)c1cccnc1F : 4.4
Cc1nc(-c2nnn(C)c2NC(=O)O[C@H](C)c2ccccc2Cl)ccc1NS(C)(=O)=O : 27

Ask: Please report Papp A→B at 4 h for the following compound: Cc1nc(-c2nnn(C)c2NC(=O)O[C@H](C)c2cc(F)cnc2F)ccc1NS(C)(=O)=O
Reply: 8.8

Ask: Please report Papp A→B at 4 h for the following compound: C[C@@H](OC(=O)Nc1c(-c2ccc(N)cn2)nnn1C)c1cc(F)cnc1F.Cl
Reply: 15

Ask: Please report Papp A→B at 4 h for the following compound: C[C@@H](OC(=O)Nc1c(-c2ccc(NS(C)(=O)=O)cn2)nnn1C)c1ccccc1
Reply: 13

Ask: Please report Papp A→B at 4 h for the following compound: C[C@@H](OC(=O)Nc1c(-c2ccc(NS(C)(=O)=O)cn2)nnn1C)c1cc(F)cnc1Cl
Reply: 5.5
